EXPERIMENT_SUMMARY: Selectivity index, ratio of IC50 for cytotoxicity against human PBMC by MTT assay to EC50 for antiproliferative activity against human PBMC by VPD450 staining based flow cytometry
Where a SMILES comes first, the peptide text is derived from it. [ ]: non-standard residue; d: D form. The star is where a group is joined. Mycophenolyl = COc1c(C)c2c(c(O)c1C/C=C(\C)CCC(=O)*)C(=O)OC2; Arg(NO2) = N=C(NCCC[C@H](N)C(=O)O)N[N+](=O)[O-]; βAla = NCCC(=O)O
Returns one of met or not met; met when Ratio IC50/EC50 is >= 3.

COMPOUND: COC(=O)[C@@H](NC(=O)[C@H](CCCCNC(=O)[C@H](C)N)NC(=O)[C@@H]1CCCN1C(=O)[C@H](CCCNC(=N)N[N+](=O)[O-])NC(=O)CC/C(C)=C/Cc1c(O)c2c(c(C)c1OC)COC2=O)[C@@H](C)O (Mycophenolyl-[Arg(NO2)]PK(Ala)T-OMe)
LABEL: met
--
COMPOUND: COc1c(C)c2c(c(O)c1C/C=C(\C)CCC(=O)N[C@@H](C(=O)O)[C@H](C)O)C(=O)OC2
LABEL: not met
--
COMPOUND: COC(=O)[C@@H](NC(=O)[C@H](CCCCNC(=O)CCN)NC(=O)[C@@H]1CCCN1C(=O)[C@H](CCCNC(=N)N[N+](=O)[O-])NC(=O)CC/C(C)=C/Cc1c(O)c2c(c(C)c1OC)COC2=O)[C@@H](C)O (Mycophenolyl-[Arg(NO2)]PK(βAla)T-OMe)
LABEL: met
--
COMPOUND: COC(=O)[C@@H](NC(=O)[C@H](CCCCNC(=O)[C@@H](N)CC(C)C)NC(=O)[C@@H]1CCCN1C(=O)[C@H](CCCNC(=N)N[N+](=O)[O-])NC(=O)CC/C(C)=C/Cc1c(O)c2c(c(C)c1OC)COC2=O)[C@@H](C)O (Mycophenolyl-[Arg(NO2)]PK(Leu)T-OMe)
LABEL: met
--
COMPOUND: COC(=O)[C@@H](NC(=O)CC/C(C)=C/Cc1c(O)c2c(c(C)c1OC)COC2=O)[C@@H](C)O
LABEL: met

[Q] Quick check, Ratio IC50/EC50 >= 3? COc1c(C)c2c(c(O)c1C/C=C(\C)CCC(=O)O)C(=O)OC2 [MYCOPHENOLIC ACID]
[A] met

[Q] Quick check, Ratio IC50/EC50 >= 3? CC[C@H](C)[C@H](N)C(=O)NCCCC[C@H](NC(=O)[C@@H](NC(=O)CC/C(C)=C/Cc1c(O)c2c(c(C)c1OC)COC2=O)[C@@H](C)O)C(=O)N1CCC[C@H]1C(=O)N[C@@H](CCCNC(=N)N[N+](=O)[O-])C(=O)OC (Mycophenolyl-TK(Ile)P[Arg(NO2)]-OMe)
[A] not met

* * *

EXPERIMENT_SUMMARY: Selectivity index, ratio of IC50 for cytotoxicity against human Jurkat T cells by MTT assay to EC50 for antiproliferative activity against human Jurkat T cells by VPD450 staining based flow cytometry
EXPERIMENTAL_ENDPOINT: Ratio IC50/EC50
A bare number is all that is needed in reply.

Example molecules with recorded Ratio IC50/EC50:
COMPOUND_STRING: COC(=O)[C@H](CCCNC(=N)N[N+](=O)[O-])NC(=O)CC/C(C)=C/Cc1c(O)c2c(c(C)c1OC)COC2=O
Ratio IC50/EC50: 16
--
COMPOUND_STRING: CC[C@H](C)[C@H](NC(=O)CC/C(C)=C/Cc1c(O)c2c(c(C)c1OC)COC2=O)C(=O)O
Ratio IC50/EC50: 33
--
COMPOUND_STRING: COC(=O)[C@H](NC(=O)CC/C(C)=C/Cc1c(O)c2c(c(C)c1OC)COC2=O)[C@H](C)O
Ratio IC50/EC50: 8.3

[Q] Give me measured Ratio IC50/EC50, please, for this molecule: COC(=O)C(NC(=O)CC/C(C)=C/Cc1c(O)c2c(c(C)c1OC)COC2=O)C(=O)OC
[A] 1.6

* * *

EXPERIMENT_SUMMARY: Immunosuppression-mediated antiproliferative activity against anti-CD3/anti-CD28-stimulated human PBMC cells assessed as inhibition of cell growth incubated for 72 hrs by VPD450 staining based flow cytometry
Assay type: functional
Where a SMILES comes first, the peptide text is derived from it. [ ]: non-standard residue; d: D form. The star is where a group is joined. Mycophenolyl = COc1c(C)c2c(c(O)c1C/C=C(\C)CCC(=O)*)C(=O)OC2; Arg(NO2) = N=C(NCCC[C@H](N)C(=O)O)N[N+](=O)[O-]; βAla = NCCC(=O)O
// boundary case: EC50 equal to 300 µM maps to false; strictly smaller maps to true

These recorded examples may help you get a feel for the data.
MOLECULE: COc1c(C)c2c(c(O)c1C/C=C(\C)CCC(=O)N[C@H](C(=O)O)[C@@H](C)O)C(=O)OC2
LABEL: true

MOLECULE: COC(=O)[C@H](CCCNC(=N)N[N+](=O)[O-])NC(=O)[C@@H]1CCCN1C(=O)[C@H](CCCCNC(=O)CCN)NC(=O)[C@@H](NC(=O)CC/C(C)=C/Cc1c(O)c2c(c(C)c1OC)COC2=O)[C@@H](C)O (Mycophenolyl-TK(βAla)P[Arg(NO2)]-OMe)
LABEL: true

MOLECULE: COC(=O)[C@@H](NC(=O)[C@H](CCCCNC(=O)CN)NC(=O)[C@@H]1CCCN1C(=O)[C@H](CCCNC(=N)N[N+](=O)[O-])NC(=O)CC/C(C)=C/Cc1c(O)c2c(c(C)c1OC)COC2=O)[C@@H](C)O (Mycophenolyl-[Arg(NO2)]PK(Gly)T-OMe)
LABEL: false

MOLECULE: COC(=O)C(NC(=O)CC/C(C)=C/Cc1c(O)c2c(c(C)c1OC)COC2=O)C(=O)OC
LABEL: true

MOLECULE: COC(=O)[C@H](CCCNC(=N)N[N+](=O)[O-])NC(=O)[C@@H]1CCCN1C(=O)[C@H](CCCCNC(=O)[C@H](C)N)NC(=O)[C@@H](NC(=O)CC/C(C)=C/Cc1c(O)c2c(c(C)c1OC)COC2=O)[C@@H](C)O (Mycophenolyl-TK(Ala)P[Arg(NO2)]-OMe)
LABEL: true

Now consider the entry below.
[Q] EC50 strictly < 300 µM for this molecule? CC[C@H](C)[C@H](N)C(=O)NCCCC[C@H](NC(=O)[C@@H](NC(=O)CC/C(C)=C/Cc1c(O)c2c(c(C)c1OC)COC2=O)[C@@H](C)O)C(=O)N1CCC[C@H]1C(=O)N[C@@H](CCCNC(=N)N[N+](=O)[O-])C(=O)OC (Mycophenolyl-TK(Ile)P[Arg(NO2)]-OMe)
[A] false

* * *

Catalogue of Ratio IC50/EC50 readings, one per entry.
EXPERIMENT_SUMMARY: Selectivity index, ratio of IC50 for cytotoxicity against human PBMC by MTT assay to EC50 for antiproliferative activity against human PBMC by VPD450 staining based flow cytometry
Where a SMILES comes first, the peptide text is derived from it. [ ]: non-standard residue; d: D form. The star is where a group is joined. Mycophenolyl = COc1c(C)c2c(c(O)c1C/C=C(\C)CCC(=O)*)C(=O)OC2; Arg(NO2) = N=C(NCCC[C@H](N)C(=O)O)N[N+](=O)[O-]
A bare number is all that is needed in reply.

[Q] Give me measured Ratio IC50/EC50, please, for this molecule: COC(=O)[C@@H](NC(=O)[C@H](CCCCNC(=O)[C@@H](N)C(C)C)NC(=O)[C@@H]1CCCN1C(=O)[C@H](CCCNC(=N)N[N+](=O)[O-])NC(=O)CC/C(C)=C/Cc1c(O)c2c(c(C)c1OC)COC2=O)[C@@H](C)O (Mycophenolyl-[Arg(NO2)]PK(Val)T-OMe)
[A] 4.3

[Q] Give me measured Ratio IC50/EC50, please, for this molecule: COC(=O)[C@@H](NC(=O)[C@H](CCCCNC(=O)CN)NC(=O)[C@@H]1CCCN1C(=O)[C@H](CCCNC(=N)N[N+](=O)[O-])NC(=O)CC/C(C)=C/Cc1c(O)c2c(c(C)c1OC)COC2=O)[C@@H](C)O (Mycophenolyl-[Arg(NO2)]PK(Gly)T-OMe)
[A] 1.5

[Q] Give me measured Ratio IC50/EC50, please, for this molecule: CC[C@H](C)[C@H](NC(=O)CC/C(C)=C/Cc1c(O)c2c(c(C)c1OC)COC2=O)C(=O)O
[A] 2.3

* * *

EXPERIMENT_SUMMARY: Immunosuppression-mediated antiproliferative activity against anti-CD3/anti-CD28-stimulated human PBMC cells assessed as inhibition of cell growth incubated for 72 hrs by VPD450 staining based flow cytometry
Assay type: functional
Where a SMILES comes first, the peptide text is derived from it. [ ]: non-standard residue; d: D form. The star is where a group is joined. Mycophenolyl = COc1c(C)c2c(c(O)c1C/C=C(\C)CCC(=O)*)C(=O)OC2; Arg(NO2) = N=C(NCCC[C@H](N)C(=O)O)N[N+](=O)[O-]
Catalogue of pEC50 readings, one per entry.
Please report pEC50 as the negative decimal logarithm of the molar concentration, giving only the number.

COMPOUND: COC(=O)[C@@H](NC(=O)[C@H](CCCCNC(=O)[C@H](C)N)NC(=O)[C@@H]1CCCN1C(=O)[C@H](CCCNC(=N)N[N+](=O)[O-])NC(=O)CC/C(C)=C/Cc1c(O)c2c(c(C)c1OC)COC2=O)[C@@H](C)O (Mycophenolyl-[Arg(NO2)]PK(Ala)T-OMe)
EXPERIMENTAL_ENDPOINT: pEC50
OBSERVED_VALUE: 3.77

[Q] Give me measured pEC50, please, for this compound: COC(=O)[C@H](CCCNC(=N)N[N+](=O)[O-])NC(=O)[C@@H]1CCCN1C(=O)[C@H](CCCCNC(=O)CN)NC(=O)[C@@H](NC(=O)CC/C(C)=C/Cc1c(O)c2c(c(C)c1OC)COC2=O)[C@@H](C)O (Mycophenolyl-TK(Gly)P[Arg(NO2)]-OMe)
[A] 3.23

[Q] Give me measured pEC50, please, for this compound: COC(=O)[C@@H](NC(=O)[C@H](CCCCN)NC(=O)[C@@H]1CCCN1C(=O)[C@H](CCCNC(=N)N[N+](=O)[O-])NC(=O)CC/C(C)=C/Cc1c(O)c2c(c(C)c1OC)COC2=O)[C@@H](C)O (Mycophenolyl-[Arg(NO2)]PKT-OMe)
[A] 4.45

[Q] Give me measured pEC50, please, for this compound: COc1c(C)c2c(c(O)c1C/C=C(\C)CCC(=O)O)C(=O)OC2
[A] 7.52
